Data credit: patent US9486435B2

In this section we review reported EC50 values for a set of molecules.
- Test system: human dermal fibroblasts from LHON patients
- procedure.details: Rescue of BSO-stressed fibroblasts from LHON patients
- Format: cell-based
- experimental.context: Fibroblast, LHON fibroblasts GM03858, BSO stress, read-out: protection against LHON, EC50

Record excerpt, results attached:
molecule	EC50
CC1=C(C)C(=O)C(CCC(C)(C)O)=C(CCc2ccccc2)C1=O [Example 25]	< 0.2 µM
CC1=C(CCC(C)(C)O)C(=O)C(c2ccc3ccccc3c2)=C(C)C1=O [Example 4]	< 0.2 µM
CC1=C(C)C(=O)C(c2ccc(C(C)(C)C)cc2)=C(CCC(C)(C)O)C1=O [Example 18]	< 0.2 µM
CC1=C(C)C(=O)C(CCC(C)(C)O)=C(CCCc2ccccc2)C1=O [Example 24]	< 0.2 µM
CC1=C(CCC(C)(C)O)C(=O)C(c2ccc(C(F)(F)F)cc2)=C(C)C1=O [Example 1]	< 0.2 µM

Input line: Please tell me: EC50 of CCc1ccc(C2=C(CCC(C)(C)O)C(=O)C(C)=C(C)C2=O)cc1 [Example 16] , system human dermal fibroblasts from LHON patients?
Output line: < 0.2 µM
